Measured values drawn from PubChem BioAssay (NCI) for this set.

# Test system: UO-31 renal
# method-summary: NCI tumour cell line growth inhibition, 48 h
# GI50 per record follows

Reference set (5 entries):
smi: Cc1cc(-c2nc3ccc(O)cc3s2)ccc1N
GI50: 21.6 µM

smi: CCS(=O)(=O)c1ccc(OC)c(Nc2nccc(N(C)c3ccc4c(C)[nH]nc4c3)n2)c1
GI50: 2.05 µM

smi: O=C(Nc1cc(Cl)ccc1O)c1cccc(NC2=C(Cl)C(=O)N(Cc3ccccc3)C2=O)c1
GI50: 38.3 µM

smi: O=C(c1cc(-c2cc3c(cc2C(=O)N2Cc4ccccc4C[C@H]2CN2CCOCC2)OCO3)n2c1CCCC2)N(c1ccccc1)c1ccc(O)cc1
GI50: 4.28 µM

smi: Nc1ncc(-c2ccc(C(F)(F)F)cc2)c(NC2CCCCCC2)n1
GI50: 13 µM

q: Consider the molecule shown here: Cc1nn2c(/C=C3/C(=O)Nc4ccc(Cl)cc43)c(-c3ccccc3)nc2s1 What is its recorded GI50?
a: 1.07 µM

----------
# GI50 per record follows
# Tested on: SK-MEL-5 melanoma
# method-summary: NCI tumour cell line growth inhibition, 48 h

Reference set (2 entries):
compound: Clc1cc(Cl)cc(N2N=C(c3cccc(Nc4ccncc4)c3)CC2c2ccc(Br)cc2)c1 (stereo not drawn)
GI50: 1.81 µM
--
compound: O=C(Nc1cc(Cl)ccc1O)c1cccc(NC2=C(Cl)C(=O)N(Cc3ccccc3)C2=O)c1
GI50: 17 µM

q: Lab note: need GI50 for Cc1cc(-c2nc3ccc(O)cc3s2)ccc1N on SK-MEL-5 melanoma, anyone have it?
a: 52.1 µM

q: Likewise for CN1CCN(Cc2ccc(NC(=O)c3[nH]ncc3Nc3ncnc4c3CCC4)cc2)CC1 ?
a: 0.874 µM

q: Likewise for CCC(C)/C=C(C)/C=C/C(=O)c1c(O)c(-c2ccc(O)cc2)c[nH]c1=O (stereo not drawn) ?
a: 4.29 µM

q: Likewise for O=C(Nc1ccc(Nc2ccncc2)cc1)c1ccc(Nc2ccnc3ccc([N+](=O)[O-])cc23)cc1 ?
a: 71.4 µM

q: Likewise for C=C(CN1CCN(c2ccccc2F)CC1)c1ccc(C(=O)Nc2ccccc2N)cc1 ?
a: 1.51 µM

q: Likewise for Nc1ncc(-c2ccc(C(F)(F)F)cc2)c(NC2CCCCCC2)n1 ?
a: 12.3 µM

q: Likewise for O=C(N/N=C/c1ccc(O)cc1O)c1ccc(Nc2ccnc(C(F)(F)F)c2)cc1 ?
a: > 100 µM

q: Likewise for CCOC(=O)[C@@H](C)C[C@H](Cc1ccccc1)NC(=O)c1csc([C@@H](C[C@H](C(C)C)N(C)C(=O)[C@H](CCC(C)C)NC(=O)[C@H]2CCCCN2C)OC(C)=O)n1 ?
a: < 0.00333 µM

----------
# System: HT29 colon
# method-summary: NCI tumour cell line growth inhibition, 48 h
# TGI per record follows
Kindly provide the numeric value in µM only, without the unit symbol.

q: Lab note: need TGI for Cc1ccc(NC(=S)NNC(=O)c2cc(-c3ccccc3)nc3ccccc23)cc1C on HT29 colon, anyone have it?
a: 49.2

q: Likewise for COC(=O)c1cc(C)ccc1CC(Cc1ccccc1C)C(=O)OC (stereo not drawn) ?
a: 94.2

q: Likewise for Cc1cc2c(cc1Cl)Sc1nnc(C)n1S2(=O)=O ?
a: 45.8

q: Likewise for Nc1ccccc1Sc1ccc(Cl)cc1 ?
a: 36.3

q: Likewise for O=C(O)c1cc2c(cc1S(=O)(=O)O)C1C(C3C2C2(Cl)C(Cl)=C(Cl)C3(Cl)C2(Cl)Cl)C2(Cl)C(Cl)=C(Cl)C1(Cl)C2(Cl)Cl (stereo not drawn) ?
a: 48

q: Likewise for C=CC1(CBr)CCC(C(C)(C)Br)O1 (stereo not drawn) ?
a: 14.4

----------
# Test system: NCI-H226 lung
# method-summary: NCI tumour cell line growth inhibition, 48 h
# TGI per record follows

compound: COc1cc(-c2cc(-c3nc4ccccc4[nH]3)[nH]n2)cc(OC)c1OC
target-under-test: NCI-H226 lung
result: 7.26 µM
//
compound: Cc1[nH]n(-c2nc(O)c(C)c(=O)[nH]2)c(=O)c1CCO
target-under-test: NCI-H226 lung
result: > 100 µM
//
compound: CCC(C)/C=C(C)/C=C/C(=O)c1c(O)c(-c2ccc(O)cc2)c[nH]c1=O (configuration not stated)
target-under-test: NCI-H226 lung
result: 22.9 µM
//
compound: CN(C)CC#Cc1cccc(C(=O)c2cnn(-c3ccc(F)cc3)c2N)c1
target-under-test: NCI-H226 lung
result: > 25 µM
//
compound: Cc1ccc(C(=O)N/N=C/c2cccc(Oc3ccccc3)c2)cn1
target-under-test: NCI-H226 lung
result: > 100 µM

q: Consider the compound shown here: Cc1ccc(NC2=C(Sc3ccc(Cl)cc3)C(=O)N(Cc3ccccc3)C2=O)cc1Cl What is its recorded TGI?
a: 19.9 µM

q: Likewise for CC(C)(N=NC(C)(C)C1=NCCN1)C1=NCCN1 ?
a: > 100 µM

q: Likewise for COc1ccc(/C=N/n2c(Cc3ccc(Cl)cc3)n[nH]c2=O)cc1 ?
a: > 100 µM

----------
# Test system: COLO 205 colon
# method-summary: NCI tumour cell line growth inhibition, 48 h; in the data active = GI50 below about 0.43 µM; inactive = the rest
Please reply with one of these outcomes: Yes for active, No for inactive

Below are worked cases with known answers.
smi: O=C(Nc1ccncc1)C(=O)c1cn(S(=O)(=O)c2ccccc2F)c2ccccc12
target-under-test: COLO 205 colon
assigned-label: No

smi: Cc1cc(-c2nc3ccc(O)cc3s2)ccc1N
target-under-test: COLO 205 colon
assigned-label: No

smi: O=C(CNC(=O)c1cccc2ccccc12)Nc1ccccc1Oc1ccccc1
target-under-test: COLO 205 colon
assigned-label: Yes

smi: O=C(Nc1cc(Cl)ccc1O)c1cccc(NC2=C(Cl)C(=O)N(Cc3ccccc3)C2=O)c1
target-under-test: COLO 205 colon
assigned-label: No

smi: CCOC(=O)C(Cc1c[nH]c2cc([N+](=O)[O-])ccc12)(NC(C)=O)C(=O)OCC
target-under-test: COLO 205 colon
assigned-label: No

smi: NC(=NC1CCCCCC1)c1ccc(N2CCN(c3ccc(C(N)=NC4CCCCCC4)cc3)CC2)cc1
target-under-test: COLO 205 colon
assigned-label: No

smi: c1ccc2[nH]c(-c3ccc(OCCCCCOc4ccc(-c5nc6ccccc6[nH]5)cc4)cc3)nc2c1
target-under-test: COLO 205 colon
assigned-label: No

smi: O=C(Nc1ccc(Nc2ccncc2)cc1)c1ccc(Nc2ccnc3ccc([N+](=O)[O-])cc23)cc1
target-under-test: COLO 205 colon
assigned-label: No

q: Record lookup: outcome of this test for CCS(=O)(=O)c1ccc(OC)c(Nc2nccc(N(C)c3ccc4c(C)[nH]nc4c3)n2)c1 ?
a: No

q: Likewise for Cc1cc(S(=O)(=O)NC#N)c(S/C(=N\Nc2ccc([N+](=O)[O-])cc2)c2ccccc2)cc1Cl ?
a: No

q: Likewise for O=C(O)c1ccc(NS(=O)(=O)c2cccc3cccnc23)cc1 ?
a: No

q: Likewise for CC[O-].CC[O-].O=Nc1ccc2cc([O-])ccc2c1.O=Nc1ccc2cc([O-])ccc2c1.[Ti+4] ?
a: No

q: Likewise for COc1cc(-c2cc(-c3nc4ccccc4[nH]3)[nH]n2)cc(OC)c1OC ?
a: No

----------
# System: DU-145 prostate
# method-summary: NCI tumour cell line growth inhibition, 48 h
*1 amine or outer side, *2 acyl side, *3 side chain or, on linkers, in order; H or OH if unused. Where a SMILES comes first, the peptide text is derived from it. Bridges are numbered along the chain shown (N, C = ends). [ ]: non-standard residue; d: D form. The star is where a group is joined. Phe(3-Me) = Cc1cccc(C[C@H](N)C(=O)O)c1; NH(4-Cl-2-F-phenyl) = Fc1cc(Cl)ccc1N*; Pro(4R-Me) = C[C@H]1CN[C@H](C(=O)O)C1; Hyp = O=C(O)[C@@H]1C[C@@H](O)CN1; aThr = C[C@H](O)[C@H](N)C(=O)O; Pip = O=C(O)[C@@H]1CCCCN1; CO = O=C([*:1])[*:2]
# TGI per record follows
Kindly provide the numeric value in µM only, without the unit symbol.

compound: Cc1cccc(C[C@H](NC(=O)Nc2ccc(Cl)cc2F)C(=O)N[C@@H]2C(=O)N3C[C@H](O)C[C@H]3C(=O)N3CCCC[C@H]3C(=O)N[C@@H](C)C(=O)N3C[C@H](C)C[C@H]3C(=O)O[C@H]2C)c1 ({NH(4-Cl-2-F-phenyl)-CO}-[Phe(3-Me)][aThr][Hyp][Pip]A[Pro(4R-Me)]; ester 2-C)
target-under-test: DU-145 prostate
measurement-units: µM
TGI: 9.84

Now look at this one.
q: Consider the compound shown here: C#CC[C@H](c1nc2cc(Cl)ccc2c(=O)n1Nc1ccccc1)N(CCCN)C(=O)c1cccc(Cl)c1F What is its recorded TGI?
a: 0.75
